- System: MCF7
- test description: IC50 in tumor cell lines (MCF7)
- Type: cell-based
- setup conditions: Table 2; breast tumor cell line MCF7
readout: pIC50
On this scale, pIC50 is minus log10 of a concentration expressed in M (mol/L).

Which measured pIC50 value corresponds to COc1ccc(-c2cnc(-c3ccncc3-c3cccc(OC)c3)o2)cc1 ? 7.96
